Biological target: Cellular tumor antigen p53 (Homo sapiens) (UniProt P04637)
Sequence (P04637 whole entry, looked up): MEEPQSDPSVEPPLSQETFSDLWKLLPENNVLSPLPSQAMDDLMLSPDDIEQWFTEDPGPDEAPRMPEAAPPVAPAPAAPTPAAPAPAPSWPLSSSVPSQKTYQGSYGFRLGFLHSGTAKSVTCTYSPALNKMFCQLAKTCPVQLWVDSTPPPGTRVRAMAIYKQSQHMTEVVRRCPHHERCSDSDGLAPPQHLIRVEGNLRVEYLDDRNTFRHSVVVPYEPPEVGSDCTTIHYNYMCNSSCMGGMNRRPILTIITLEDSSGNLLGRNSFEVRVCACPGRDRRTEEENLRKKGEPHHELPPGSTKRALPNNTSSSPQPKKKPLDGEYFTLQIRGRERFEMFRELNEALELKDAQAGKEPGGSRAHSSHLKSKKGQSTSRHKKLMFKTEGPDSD
Test: kinase inhibitors altering GFP-p53 stability in HPV16-positive cells, imaging, known kinase inhibitor set, EGFP/DsRed ratio (AID 1053116);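 note: cells exposed to compounds for 24 h at 37 °C before reading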
Activity calls are given as the source filed them. The rule behind the calls is not given here.
Possible outcomes: t for active, f for inactive

Molecule	Assigned label
Cc1ccc2c(-c3ccnc(Nc4ccccc4)n3)c(-c3ccc(F)cc3)nn2n1	f
NS(=O)(=O)c1cccc(-c2cc3ccncc3cc2OCc2ccccc2)c1	f
Nc1nccc(-c2c(-c3ccc(F)cc3)ncn2CCCN2CCOCC2)n1	f
CN=C1NC(=O)C(=Cc2ccc3ncccc3c2)S1	f
COc1ccc(-c2cc3c(N)ncnc3o2)cc1	f
O=C(Nc1ccc(Oc2ccc3nc(NC(=O)c4ccccc4)[nH]c3c2)cc1)Nc1cc(C(F)(F)F)ccc1F	f
Cn1cc(C2=C(c3cn(C)c4cc(C(N)=O)ccc34)C(=O)NC2=O)c2ccccc21	t
Cc1nn(C)c2cc(N(C)c3ccnc(Nc4cccc(S(N)(=O)=O)c4)n3)ccc12	f
O=C1NC(=NCCc2ccc(F)cc2)SC1=Cc1ccc2ncccc2c1	f
c1cnn2ncc(-c3ccnc(NCCCN4CCOCC4)n3)c2c1	f
Cc1cc(O)cc(C)c1/C=C/c1cncc(C(N)=O)c1	f
COc1cccc(C(=O)c2sc(Nc3ccc(N4CCN(C(C)C)CC4)cc3)nc2N)c1	f
N#Cc1cccc(C(=O)c2cnn(-c3ccc(F)cc3)c2N)c1	f
CCn1c(-c2nonc2N)nc2c(C#CC(C)(C)O)nc(OCCNC)cc21	f
Cc1ccccc1C1=C(c2cn(C)c3ccccc23)C(=O)NC1=O	f
CN1CCN(CC#Cc2cccc(C(=O)c3cnn(-c4ccc(F)cc4)c3N)c2)CC1	f
COc1cc(C)c(NC(=O)CN(C)C)cc1Nc1nc(Nc2cccc(F)c2C(N)=O)c2cc[nH]c2n1	f
Cc1cccc2c(N=Nc3ccc(S(N)(=O)=O)cc3)c(O)[nH]c12	f
Clc1ccc(CNc2nccc(-c3cnn4ncccc34)n2)cc1	f
COc1cccc(C2=C(c3cn(C)c4cccc(OC)c34)C(=O)NC2=O)c1	f
CS(=O)(=O)CCNCc1ccc(-c2ccc3ncnc(Nc4ccc(OCc5cccc(F)c5)c(C(F)(F)F)c4)c3c2)o1	f
CC(C)=Cc1cccc2[nH]c(O)c(N=Nc3ccc(S(N)(=O)=O)cc3)c12	f
O=C1NC(=O)C(c2c[nH]c3ccccc23)=C1c1c[nH]c2ccccc12	f
O=C1Nc2ccc(F)c3c(OCCO)cc(-c4ccc[nH]4)c1c23	f
O=C1Nc2ccc(F)cc2C1=Cc1ccc[nH]1	f
O=C1Nc2ccccc2/C1=C1\CCc2cc(O)ccc21	f
COc1cccc(/C=N/Nc2ncnc3c2cnn3-c2cccc(OC)c2)c1	f
CS(=O)(=O)CCNCc1ccc(-c2ccc3ncnc(Nc4ccc(OCc5ccccc5)cc4)c3c2)o1	f
O=C1NC(=NCCc2cccs2)SC1=Cc1ccc2ncccc2c1	f
O=c1[nH]c2nc(NC3CCOCC3)ncc2cc1Oc1ccc(F)cc1F	f
Cc1cc(O)cc(C)c1/C=C/c1cncc(C(=O)OC(C)(C)C)c1	f
O=C1N=c2ccc(N=Cc3c(O)[nH]c4ccccc34)cc2=N1	f
Fc1ccc(-c2c(-c3ccncc3)[nH]c3nccnc23)cc1	f
CC1=C(C(=O)Nc2ccc3[nH]ncc3c2)C(c2ccc(Cl)c(Cl)c2)CC(=O)N1 (configuration not stated)	f
CCC(=O)Nc1ccc(C)c(-c2ccc(C(=O)NCC3CC3)cc2)c1	f
Nc1c(C(=O)c2cccc(C#CCN3CCOCC3)c2)cnn1-c1ccc(F)cc1	f
CS(=O)(=O)CCNCc1ccc(-c2ccc3ncnc(Nc4ccc(OCc5ccccc5)c(C(F)(F)F)c4)c3c2)o1	f
Cc1ccc(C)c(C2=C(c3cn(C)c4ccccc34)C(=O)NC2=O)c1	f
CCNC(=O)C1CCCN2C(=O)CCC(NC(=O)C(Cc3ccc(OP(=O)(O)O)cc3)NC(C)=O)C(=O)N12 (configuration not stated)	f
CC(C)COC(=O)c1ccc2[nH]c(O)c(C=Nc3ccc(S(N)(=O)=O)cc3)c2c1	f
COCC(N=C1NC(=O)C(=Cc2ccc3ncccc3c2)S1)c1ccccc1 (configuration not stated)	f
Cn1cc(C2=C(c3cn(C)c4ncccc34)C(=O)NC2=O)c2ccccc21	f

###

Molecular target: Cellular tumor antigen p53 (Homo sapiens)
Assay: kinase inhibitors altering GFP-p53 stability in HPV16-positive cells, imaging, known kinase inhibitor set, EGFP/DsRed ratio (AID 1053116);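 note: cells exposed to compounds for 24 h at 37 °C before reading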
Conditions: stronger effect = higher value
Activity calls are given as the source filed them. The rule behind the calls is not given here.
Attribute measured: EGFP/DsRed ratio

Molecule	Result value
Oc1cccc(-c2nc(-c3ccccc3)[nH]c2-c2ccncc2)c1	0.0183 (inactive)
O=C1NC(O)C(c2c[nH]c3ccccc23)=C1c1c[nH]c2ccccc12 (stereo unspecified)	0.15 (inactive)
Cn1c(=O)c(Oc2cccc(F)c2)cc2cnc(NC3CCOCC3)nc21	0.127 (inactive)
COc1cc2ncn(-c3cc(OCc4ccccc4C(F)(F)F)c(C(=O)N(C)C)s3)c2cc1OC	0.396 (inactive)
COc1cc2ncn(-c3cc(O[C@H](C)c4ccccc4Cl)c(C(N)=O)s3)c2cc1OC	0.108 (inactive)
O=C1NC(=NCc2cccs2)OC1=Cc1ccc2ncccc2c1	0.0818 (inactive)
CCOc1nccc2c1nc(-c1nonc1N)n2CC	0.429 (inactive)
COc1ccccc1Nc1ncc(-c2ccccc2)o1	0.173 (inactive)
COC(=O)Nc1nc2ccc(Oc3ccc(NC(=O)Nc4ccccc4)cc3)cc2[nH]1	0.664 (inactive)
Cn1cc(C2=C(c3ccccc3[N+](=O)[O-])C(=O)NC2=O)c2ccccc21	0.315 (inactive)
Cn1cc(C2=C(c3ccccc3)C(=O)NC2=O)c2ccccc21	0.26 (inactive)

###

Readings of score for the listed compounds
Assay: suppressors of polyQ aggregation in yeast, 75Q-TubU reporter (AID 1593)
Settings: Yeast 75Q polyglutamine aggregation reporter

Compound	score
OC(CCN1CCCC1)(c1ccccc1)C1CCCCC1 (configuration not stated)	1.52
Cc1cccc(Nc2ccccc2C(=O)O)c1C	0.19
NC(=O)c1cnccn1	1.27
CC(=O)CCCCn1c(=O)c2c(ncn2C)n(C)c1=O	1.37
CSc1ccc2c(c1)N(CCC1CCCCN1C)c1ccccc1S2 (configuration not stated)	0.94
Nc1c2c(nc3ccccc13)CCCC2	1.21
NS(=O)(=O)c1cc2c(cc1C(F)(F)F)NCNS2(=O)=O	1.38

###

Readings of SSMD for the listed compounds
Experiment: modifiers of HSF1 nuclear foci, imaging, Selleck Cancer Library (AID 1347162)
Conditions: human cells, at 10 µM; measured here: HSF1 foci SSMD mean
Attribute measured: SSMD

Molecule smiles	Attribute measured	Result value
O=C1[C@H](CC[C@H](O)c2ccc(F)cc2)[C@@H](c2ccc(O)cc2)N1c1ccc(F)cc1	SSMD	0.185
O=c1[nH]cc(F)c(=O)[nH]1	SSMD	2.14
C[C@]12CCC(=O)C=C1CC[C@@H]1[C@@H]2[C@@H](O)C[C@@]2(C)[C@H]1CC[C@]2(O)C(=O)CO	SSMD	2.5
CN(C)CCOc1ccc(-c2nc(-c3ccc4c(c3)CC/C4=N\O)c(-c3ccncc3)[nH]2)cc1	SSMD	1.6

###

Tested on: R275C
Test: modulators of BK channel variants, profiling panel, selectivity assay, cell-based, U2OS BacMam, thallium flux, beta subunits (AID 1259406);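 note: initial slope of Thallos dye fluorescence rise after thallium is added; log ratio against the mean of 0.3% DMSO vehicle wells on the same plate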
Conditions: at 30 µM
Readings of log fold change Tl+ flux for the listed compounds

Compound	log fold change Tl+ flux
CCCCNC(=O)NS(=O)(=O)c1ccc(C)cc1	-0.0266
COc1ccc2cc(CCC(C)=O)ccc2c1	-0.0871
NS(=O)(=O)c1cc2c(cc1Cl)NCNS2(=O)=O	-0.00411
CCN(Cc1ccncc1)C(=O)C(CO)c1ccccc1 (stereo unspecified)	-0.035
CN(C)CCc1c[nH]c2ccc(C[C@H]3COC(=O)N3)cc12	-0.02
O=C1c2c(O)ccc(O)c2C(=O)c2c(NCCNCCO)ccc(NCCNCCO)c21	-0.0256

###

Experiment: hESC survival regulators, cell-based (AID 493140);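 note: cells exposed to compounds for four days before counting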
Conditions: human embryonic stem cell survival screen; stronger effect = higher value
Readings of survival for the listed molecules

Molecule	survival
Nc1nc2c(ncn2COCCO)c(=O)[nH]1	18.2
Cc1ccccc1C(OCCN(C)C)c1ccccc1 (configuration not stated)	11.9
Nc1nc(N)c2nc(-c3ccccc3)c(N)nc2n1	18.2
CCCSc1ccc2nc(NC(=O)OC)[nH]c2c1	0.917
CCN(Cc1ccncc1)C(=O)C(CO)c1ccccc1 (configuration not stated)	16.4
COc1ccc(Cl)cc1C(=O)NCCc1ccc(S(=O)(=O)NC(=O)NC2CCCCC2)cc1	5.42
Cc1ccc(C)c(OCCCC(C)(C)C(=O)O)c1	20.8
NC12CC3CC(CC(C3)C1)C2	4.42
NNC(=O)c1ccncc1	30.9
NNCCc1ccccc1	9.5
CN(C)CC/C=C1\c2ccccc2COc2ccccc21	18.8
NS(=O)(=O)c1cc(C2(O)NC(=O)c3ccccc32)ccc1Cl (configuration not stated)	4.42
CCCCc1oc2ccccc2c1C(=O)c1cc(I)c(OCCN(CC)CC)c(I)c1	3.5
CC(C)(C)NCC(O)COc1cccc2c1C[C@H](O)[C@H](O)C2 (some centres not stated)	5.83
CC(=O)CCCCn1c(=O)c2c(ncn2C)n(C)c1=O	14.1
CN(C)CCC=C1c2ccccc2CCc2ccccc21	7.08
C=C(CC)C(=O)c1ccc(OCC(=O)O)c(Cl)c1Cl	25.6
CC(C[N+](C)(C)C)OC(N)=O (configuration not stated)	18.5
Nc1nc2ccc(OC(F)(F)F)cc2s1	22.5
O=C(O)c1cccnc1	4
CN(C)CCCN1c2ccccc2CCc2ccccc21	8.08
CN(C)CCCN1c2ccccc2CCc2ccc(Cl)cc21	4.17
c1ccc2c(c1)CCCC2C1=NCCN1 (configuration not stated)	6
O=C1c2c(O)ccc(O)c2C(=O)c2c(NCCNCCO)ccc(NCCNCCO)c21	0.583
CCC1(c2ccccc2)C(=O)NCNC1=O	5.92
COc1ccccc1N1CCN(CCCNc2cc(=O)n(C)c(=O)n2C)CC1	5.83
CC(C)(C)NCC(O)c1cc(O)cc(O)c1 (configuration not stated)	21.1

Data origin, for the record: PubChem BioAssay
